Data origin, for the record: patent US4599351A

System: Pythium vexans Resistant
Assay: microbe, parasite or virus in culture
Assay type: cell-based
Settings: ED50-resistant to ED50-sensitive
assayReadout: ED50 Ratio R/S, Pythium vexans
// print number alone

In the examples that follow, each entry is paired with its recorded ED50 Ratio R/S, Pythium vexans.
CCCC(=O)N(c1c(C)cccc1C)C1CCOC1=O (stereo not drawn) : 100
CCCCCC(=O)N(c1c(C)cccc1C)C1CCOC1=O (stereo not drawn) : 29
CCCCC(=O)N(c1c(C)cccc1C)C1CCOC1=O (stereo not drawn) : 400

## Input Consider the compound Cc1cccc(C)c1N(C(=O)CCl)C1CCOC1=O (stereo not drawn) [CH2 Cl, reference compound] . State its measured ED50 Ratio R/S, Pythium vexans.
## Output 763

====

Test system: Phytophthora infestans
Experiment: whole plant or invertebrate
Format: in vivo
Details: Phytophthora infestans, in Solanum lycopersicum, read-out: Fungicidal Efficacy, TLB (percent disease control)
Label y when pest or weed control at 250 ppm < 20%; otherwise n.

CCCC(=O)N(c1c(C)cccc1C)C1CCSC1=O (stereo not drawn) [CH2 CH2 CH3, Y = S, Z = O] : n
CCCCC(=O)N(c1c(C)cccc1C)C1CCOC1=O (stereo not drawn) : n
CCCC(=O)N(c1c(C)cccc1C)C1CCOC1=O (stereo not drawn) [Example 1] : n
CCCCCC(=O)N(c1c(C)cccc1C)C1CCOC1=O (stereo not drawn) [(CH2)4 CH3] : n
CCCC(=S)N(c1c(C)cccc1C)C1CCOC1=O (stereo not drawn) [CH2 CH2 CH3, Y = O, Z = S] : n
Cc1cccc(C)c1N(C(=O)C(C)(C)C)C1CCOC1=O (stereo not drawn) [C(CH3)3] : y

## Input Item CCC(=O)N(c1c(C)cccc1C)C1CCOC1=O (stereo not drawn) [C2 H5] : pest or weed control at 250 ppm beneath 20%, strictly?
## Output n

## Input Item Cc1cccc(C)c1N(C(=O)C(C)C)C1CCOC1=O (stereo not drawn) [CH(CH3)2] : pest or weed control at 250 ppm beneath 20%, strictly?
## Output n

## Input Item Cc1cccc(C)c1N(C(=O)CC(C)C)C1CCOC1=O (stereo not drawn) [CH2 CH(CH3)2] : pest or weed control at 250 ppm beneath 20%, strictly?
## Output y

====

Tested on: Pythium vexans Sensitive (Naturally Occurring)
Experiment: Fungitoxicity in V-8 juice agar, sensitive Pythium vexans (Example 7)
Assay type: cell-based
Conditions: Phytopythium vexans; V-8 juice agar; read-out: ED50, Pythium vexans Sensitive (Naturally Occurring)
Measured IC50 accompanies every entry in the list below.
Reply with just the number (in µg/mL).

In the examples that follow, each entry is paired with its recorded IC50.
CCCC(=O)N(c1c(C)cccc1C)C1CCOC1=O (stereo not shown) : 0.43
Cc1cccc(C)c1N(C(=O)CCl)C1CCOC1=O (stereo not shown) [CH2 Cl, reference compound] : 0.19
CCCCC(=O)N(c1c(C)cccc1C)C1CCOC1=O (stereo not shown) : 0.1
COCC(=O)N(c1c(C)cccc1C)C(C)C(=O)OC (stereo not shown) [CONTROL, reference compound] : 0.075
COCC(=O)N(c1c(C)cccc1C)C1CCOC1=O (stereo not shown) [CH2 OCH3, reference compound] : 0.15

## Input Consider the compound CCCCCC(=O)N(c1c(C)cccc1C)C1CCOC1=O (stereo not shown) . State its measured IC50.
## Output 0.56

====

System: Plasmopara viticola
Assay: whole plant or invertebrate
Assay type: in vivo
Conditions: Plasmopara viticola, in Vitis vinifera; read-out: Fungicidal Efficacy, GDM (percent disease control)
assayReadout: pest or weed control at 250 ppm

In the examples that follow, each entry is paired with its recorded pest or weed control at 250 ppm.
CCCCCC(=O)N(c1c(C)cccc1C)C1CCOC1=O (stereo not shown) [(CH2)4 CH3] : 100%
CCCC(=O)N(c1c(C)cccc1C)C1CCOC1=O (stereo not shown) [Example 1] : 100%
CCCC(=O)N(c1c(C)cccc1C)C1CCSC1=O (stereo not shown) [CH2 CH2 CH3, Y = S, Z = O] : 99%
Cc1cccc(C)c1N(C(=O)C(C)C)C1CCOC1=O (stereo not shown) [CH(CH3)2] : 0%
CCCC(=S)N(c1c(C)cccc1C)C1CCOC1=O (stereo not shown) [CH2 CH2 CH3, Y = O, Z = S] : 100%

## Input Find the measured pest or weed control at 250 ppm of CCCCC(=O)N(c1c(C)cccc1C)C1CCOC1=O (stereo not shown) with Plasmopara viticola as test system.
## Output 100%

## Input Find the measured pest or weed control at 250 ppm of Cc1cccc(C)c1N(C(=O)CC(C)C)C1CCOC1=O (stereo not shown) [CH2 CH(CH3)2] with Plasmopara viticola as test system.
## Output 96%

====

Test system: Pythium ultimum Resistant
Assay: microbe, parasite or virus in culture
Type: cell-based
Conditions: ED50-resistant to ED50-sensitive
Measured ED50 Ratio R/S, Pythium ultimum accompanies every entry in the list below.

## Input Consider the compound COCC(=O)N(c1c(C)cccc1C)C(C)C(=O)OC (centres unmarked) [CONTROL, reference compound] . State its measured ED50 Ratio R/S, Pythium ultimum.
## Output 26,000

## Input Consider the compound COCC(=O)N(c1c(C)cccc1C)C1CCOC1=O (centres unmarked) [CH2 OCH3, reference compound] . State its measured ED50 Ratio R/S, Pythium ultimum.
## Output 160,000

## Input Consider the compound CCC(=O)N(c1c(C)cccc1C)C1CCOC1=O (centres unmarked) . State its measured ED50 Ratio R/S, Pythium ultimum.
## Output 808

## Input Consider the compound Cc1cccc(C)c1N(C(=O)CCl)C1CCOC1=O (centres unmarked) [CH2 Cl, reference compound] . State its measured ED50 Ratio R/S, Pythium ultimum.
## Output 24,000

## Input Consider the compound CCCC(=O)N(c1c(C)cccc1C)C1CCOC1=O (centres unmarked) . State its measured ED50 Ratio R/S, Pythium ultimum.
## Output 4,750

====

Test system: Pythium ultimum Resistant
Assay: microbe, parasite or virus in culture
Assay type: cell-based
Conditions: Globisporangium ultimum, read-out: ED50, Pythium ultimum Resistant
Label Fulfilled when IC50 < 100 µg/mL; otherwise Not fulfilled.

The following molecules have reported results that may help.
COCC(=O)N(c1c(C)cccc1C)C1CCOC1=O (centres unmarked) [CH2 OCH3, reference compound] : Not fulfilled
Cc1cccc(C)c1N(C(=O)CCl)C1CCOC1=O (centres unmarked) [CH2 Cl, reference compound] : Not fulfilled

## Input Item CCCC(=O)N(c1c(C)cccc1C)C1CCOC1=O (centres unmarked) [Example 1] : IC50 beneath 100 µg/mL, strictly?
## Output Fulfilled

## Input Item COCC(=O)N(c1c(C)cccc1C)C(C)C(=O)OC (centres unmarked) [CONTROL, reference compound] : IC50 beneath 100 µg/mL, strictly?
## Output Not fulfilled

## Input Item CCC(=O)N(c1c(C)cccc1C)C1CCOC1=O (centres unmarked) [C2 H5] : IC50 beneath 100 µg/mL, strictly?
## Output Not fulfilled
